# System: MS2 coat protein
# Protocol summary: apparent Kd, MS2 coat protein; higher = weaker binding; RNA-MaP array; FMN 200 µM where present
# Assay conditions: designed as: OFF switch for flavin mononucleotide; no ligand
Tag: t if measured apparent Kd is not below 20 nM, f if it is.

Worked examples, 3 sequences total:
INSERT INTO results (chain_sequence, cat) VALUES
  ('UCAUUUCUGUAAGGAUAUAUAAACAUGACGAUACAUGAGGAUCACCCAUGUAUAGAAGGUACAAAUACAUAUAAUGCAAUGUUC', 'f'),
  ('UCAUGUAUGUAGGAUAUCGAUGUCUUCGGACAUCGAGAAGGACGUACAUGAGGAUCACCCAUGUAACUUGCAUG', 'f'),
  ('GCCGUUAAAGGAUAUACAUGAGGAUCACCCAUGUCGGUAUAAAAUUUACCGCCUCCCUGUAGAAGGUUAAGGCA', 'f');

Inquiry: Threshold query (apparent Kd >= 20 nM) on UUCUUUCCUCAUGUACAUGAGGAACAUGAGGAUCACCCAUGUAGAAGGAUUUCAAUUAAAUUAAAAUAGGAUAUACAUCUAUUU
Reply text: f

Inquiry: Has GGAAAACAUGAGGAUCACCCAUGUGAGGAUAUCGAUGUCCAAAGGAAAGUGCGGGACUCGAGAAGGCACUUGGA a recorded apparent Kd greater than or equal to 20 nM?
Reply text: t

Inquiry: Could you tell me if the measured apparent Kd of UGUAUAUAGGCAGGAUAUACAUGAAUAUAUAUGAUGUAGUAUGAUGUAACAUGAGGAUCACCCAUGUAGAAGGGCCAGUAUAUA reaches 20 nM or more?
Reply text: t

Inquiry: Threshold query (apparent Kd >= 20 nM) on AAGGAUCGAGGAUAUACAUAGAUACAGAUACAUGUAGACGUACAUGAGGAUCACCCAUGUAGAAGGCGAUUAUA
Reply text: t

---

# System: MS2 coat protein
# Protocol summary: apparent Kd, MS2 coat protein; higher = weaker binding; RNA-MaP array; tryptophan 2.4 mM where present
# Assay conditions: ligand present: tryptophan; designed as: ON switch for tryptophan
Returns the class for an entry based on its apparent Kd. Class ranges: lo: < 20 nM; mid: ≥ 20 nM and < 30 nM; hi: ≥ 30 nM

INSERT INTO results (chain_sequence, cat) VALUES
  ('CCGCACAUGAGGAUCACCCAUGUCCGGGUUCGAGGACCGGUACGGCCGCCACUCGGACAUGUGCGCCCUUCAUGCACUGUAUAAA', 'hi'),
  ('AUAUAUACAUGAGGAUCACCCAUGUUAUUUCGAGGACCGGUACGGCCGCCACUCGAUAGAGUAGAAGUAACAUGUGUUAGUUGAU', 'hi'),
  ('GGGUGGUAGGCGGCCGCCACUGAUUUUUAUUUAUAGAUGACAUGAGGAUCACCCAUGUAGAUAUGCAGGACCGGGCCUGUUGUUU', 'lo'),
  ('GACCCAUGAGUUGCAAAAGCUCAUGGGUCGCGAGGACCGGUACGGCCGCCACUCGGCUGUACAUGAGGAUCACCCAUGUCAGGGU', 'hi');

Inquiry: Exam item: assign GGAUUCAACUCGGCCGCCACUGGUGAUCCUAAUGUACAUGAGGAUCACCCAUGUACAUGAGAAUACAGGACCGGGAGAUAAGCAA to the correct category.
Reply text: lo

Inquiry: Category of AUAAAAGGGUUAUAUAGAUUUAGGUCCAGUCGAGGACCGGUACGGCCGCCACUCGUACUGAAAUACAUGAGGAUCACCCAUGUUA , please.
Reply text: mid

Inquiry: Please let me know in which category the item GCUAGGUCAUCGGCCGCCACUAACGACGGUUCCAACAUGAGGAUCACCCAUGUGCCACAUGCGCAUAGGACCGGGAUGACCUAGC belongs.
Reply text: mid

Inquiry: Which bin should I file GCAUCCUAGUCGGCCGCCACUGGUACGAACACCUUCACCCGUGUGCACAUGAGGAUCACCCAUGUCAGGACCGGGACUAGGAUGC under?
Reply text: lo

Inquiry: Into which category would you place ACAUGAGGAUCACCCAUGUACAUCACCCGACGAGGACCGGUACGGCCGCCACUCGGGUAUAUAUAUACAUCGGGUGAUUUUACGU ?
Reply text: lo

Inquiry: Quick check: band for ACCUCAUAGGCGGCCGCCACUGUAAUGACUACGUCAAACAUGAGGAUCACCCAUGUAGUCAAUCACAGGACCGGGUCAUGGGUAG
Reply text: mid

Inquiry: Bin? UAUCUACAUAUAUAGGUUAUUCGAUUAUUUCGAGGACCGGUACGGCCGCCACUCGUUAACAUAUACAUGAGGAUCACCCAUGUUA
Reply text: lo

Inquiry: Form: Item = GGAUUACGAAAGUAGUCCAUCAAGUUCGAGCGAGGACCGGUACGGCCGCCACUCGAACAUGAGGAUCACCCAUGUAGCGAAAGCU ; Class = ?
Reply text: hi

Inquiry: Pick a category. Item: UUUAAAUAGACGGCCGCCACUGGAAUUAAUACAUGAGGAUCACCCAUGUAGAGAGAAUAAUAAUACAGGACCGGGUCUUCAUGAA
Reply text: lo

---

# Tested on: MS2 coat protein
# Protocol summary: apparent Kd, MS2 coat protein; higher = weaker binding; RNA-MaP array; theophylline 2 mM where present
# Assay conditions: ligand present: theophylline; designed as: OFF switch for theophylline
Assign criterion met to entries whose apparent Kd meets or exceeds 100 nM; assign criterion not met to the rest.

Consider the worked cases shown below.
INSERT INTO results (chain_sequence, study_system, cat) VALUES
  ('CAAACAUGAGGAUCACCCAUGUAAUCAGAUACCAGUGACGAAAGUCACCCUUGGCAGCUGAGUACAUAUUGGCAGAGGUGUUUGA', 'MS2 coat protein', 'criterion not met'),
  ('AGACAUGAGGAUCACCCAUGUAGCAUGGAUACCAGAUCCAGAUUUAUCCCUUGGCAGCUGUGGUACAGUGAUGGAUUGCUCCUAG', 'MS2 coat protein', 'criterion met'),
  ('GCACCAGGUACGGAUACCAGACUCUGCCGAUUGGGUGAACAUGAGGAUCACCCAUGUUAGGUCCCUUGGCAGCCGUACCUGGUGC', 'MS2 coat protein', 'criterion met'),
  ('ACGUCCAGGUUAAUCGUGGACAUGGUCGAUACCAGUAUUUUAAUCUACCCUUGGCAGCGACAUGAGGAUCACCCAUGUGCGAUGA', 'MS2 coat protein', 'criterion not met');

Inquiry: Please tell me: is the sequence ACGAACUGUAGUGAUACCAGACGUACAUGAGGAUCACCCAUGUUGUAAACAUGGUGAAUAGUCCCUUGGCAGCACAGUUAGUUCG at or over 100 nM in terms of apparent Kd?
Reply text: criterion met

Inquiry: hey, is apparent Kd for this one >= 100 nM? AUAUUAAAGAGUGAUACCAGACUACAUGAGGAUCACCCAUGUUACAUUUAAAUAUCAUUUGUCCCUUGGCAGCACAUUAAGUACA
Reply text: criterion not met

Inquiry: Answer whether apparent Kd of UUAUUUAUAAUGGAUACCAGUCGUAUGGCCCGGCAUCCUGACAUGAGGAUCACCCAUGUCGACCCUUGGCAGCUGUUAUGGGUUU is greater than or equal to 100 nM.
Reply text: criterion not met

Inquiry: Has CGCUACGUAACUGAUACCAGUGUACUGACAUGAGGAUCACCCAUGUUGGGUUUUGUUGUACACCCUUGGCAGCAGAAUCGUAGCG a recorded apparent Kd greater than or equal to 100 nM?
Reply text: criterion not met

Inquiry: Answer whether apparent Kd of AUAAGUAAGUUUUCGUGUUUUAUUACAGAUACCAGACUAUACGUUGUCCCUUGGCAGCUGGAUUACAUGAGGAUCACCCAUGUUG is greater than or equal to 100 nM.
Reply text: criterion not met

---

# System: MS2 coat protein
# Protocol summary: apparent Kd, MS2 coat protein; higher = weaker binding; RNA-MaP array
# Assay conditions: ligand present: flavin mononucleotide; designed as: ON switch for flavin mononucleotide
Reported endpoint: apparent Kd
Please give the number followed by its unit.

INSERT INTO results (chain_sequence, study_system, reported_endpoint, result_value) VALUES
  ('AUGCCACCAUACCGCAGUAAUACAUGAGGAUCACCCAUGUAGGAGGAUAUACUUUUGGUAAUGAUGUAGAAGGCCUAGUGGUAC', 'MS2 coat protein', 'apparent Kd', '6.09 nM');

Inquiry: Report apparent Kd for CCAUUGCAUGGAGGAUAUGAGCAGUAAGUACUCUCAGAAGGCCACGGAGUAAACAAACCAUCUUACAUGAGGAUCACCCAUGUA
Reply text: 7.69 nM

Inquiry: Provide only the value of recorded apparent Kd for UCCCGAAAGAAGAAGGGUACACCGAGCUGGUAACACAGCAAAACAUGAGGAUCACCCAUGUCUGAACAGGAUAUUCCGCGAGUA
Reply text: 25.5 nM

Inquiry: Specify measured apparent Kd for CGAUACCAUGGUCAGGAUAUGAAACAGCUGACAUGAGGAUCACCCAUGUGAUAGGCAGGUGGACUUCAGAAGGGACACAUACACCA .
Reply text: 50.2 nM

Inquiry: Please report apparent Kd for the following sequence: GUGACUAAAUGCAAGGAUAUCCGCGGCGGUACAUGAGGAUCACCCAUGUCAAGAGUCCACUGGCAGGAGAAGGUGCCCUGCGUCAU
Reply text: 6.07 nM

Inquiry: Supply apparent Kd value. Item: AUUAAGUCGACAGGAUAUCCGUACUUUGAGUAAGGAGAAGGGUCUACAAAGGUACAUGAGGAUCACCCAUGUGACUUGGCCGUC
Reply text: 7.7 nM

Where do these numbers come from? They come from the EternaBench riboswitch data.
